Target: Tpx W39A (Trypanosoma brucei brucei, UniProt O77404, W39A)
Sequence (O77404 whole entry W39A): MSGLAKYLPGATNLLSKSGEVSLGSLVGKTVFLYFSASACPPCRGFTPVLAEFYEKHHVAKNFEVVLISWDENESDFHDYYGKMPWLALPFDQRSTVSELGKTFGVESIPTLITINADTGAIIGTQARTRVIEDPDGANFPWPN
Test: biochemical
pKd: −log10 of the molar value.

{"columns": ["smiles", "pKd"],
 "data": [
  ["O=c1[nH]c(CCl)nc2scc(-c3ccc(F)cc3)c12", 3.52]
]}

* * *

Biological target: Tpx WT (Trypanosoma brucei brucei)
Sequence (O77404 whole entry): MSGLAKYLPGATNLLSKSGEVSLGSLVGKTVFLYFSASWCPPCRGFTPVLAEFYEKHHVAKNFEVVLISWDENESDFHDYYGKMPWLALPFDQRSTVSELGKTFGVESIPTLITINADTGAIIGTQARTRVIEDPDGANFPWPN
Experiment: biochemical
Type: binding
measureName: Kd (µM)

{"columns": ["molecule", "reportedResult"],
 "data": [
  ["O=c1[nH]c(CCl)nc2scc(-c3ccc(C(F)(F)F)cc3)c12 [CtFT]", 360],
  ["O=c1[nH]c(CCl)nc2scc(-c3ccc(F)cc3)c12 [para-CFT]", 5],
  ["O=c1[nH]c(CCl)nc2scc(-c3ccccc3)c12 [CPT]", 16],
  ["O=c1[nH]c(CCl)nc2scc(-c3cccc(F)c3)c12 [meta-CFT]", 6]
]}

* * *

Molecular target: UniProt:O77404
Assay: biochemical
Type: binding
Details: Tpx WT with or without molecular glue; from rD,LILBID with calibration factor f1100
// reported rD,solution for each item listed
measureName: rD,solution

{"columns": ["smiles", "measureName", "reportedResult"],
 "data": [
  ["O=c1[nH]c(CCl)nc2scc(-c3cccc(F)c3)c12", "rD,solution", 0.420],
  ["O=c1[nH]c(CCl)nc2scc(-c3ccc(F)cc3)c12", "rD,solution", 0.398],
  ["O=c1[nH]c(CCl)nc2scc(-c3ccc(C(F)(F)F)cc3)c12", "rD,solution", 0.932],
  ["O=c1[nH]c(CCl)nc2scc(-c3ccccc3)c12", "rD,solution", 0.568],
  ["O=c1[nH]c(CCl)nc2scc(-c3ccccc3F)c12", "rD,solution", 0.642]
]}
